Sourced from PubChem BioAssay AID2060503

# System: 817829-284-R-J1-PDC complex spheroids, viability
# assay_comment: Anticancer human tumor 817829-284-R-J1-PDC patient-derived colon adenocarcinoma cell line growth inhibition [GQUAD]
# test_settings: curve of first compound; second compound 10 µM
# Source text: DNA G-quadruplex Stabilizer Agents in Combinations in Complex Spheroids A high-throughput screen of multi-cell type tumor spheroids was designed to identify active combinations of DNA G-quadruplex stabilizer agents and targeted small molecules. […] Compounds. […] If the clinical Cmax for an agent had not been determined, the highest concentration tested was 10 microM. […]
Items are presented alongside their recorded IC50.
experimental_endpoint: IC50

[[record]]
compound = "CC[C@@]1(O)C(=O)OCc2c1cc1n(c2=O)Cc2cc3c(CN(C)C)c(O)ccc3nc2-1 + Cc1cnc(CNC(=O)c2c(=O)c3ccc(N4CCCN(C)CC4)nc3n3c2sc2ccccc23)cn1"
result = "< 0.999 nM"

[[record]]
compound = "COc1ncnc(C2CC2)c1-c1ncc2cnn(Cc3ccc(-c4nc(C(F)(F)F)cn4C(C)C)cc3)c2n1 + CN(C)c1ccc(Nc2c3ccc(NC(=O)CCN4CCCC4)cc3nc3cc(NC(=O)CCN4CCCC4)ccc23)cc1"
result = "4430 nM"

[[record]]
compound = "Cc1[nH]c2ccccc2c1CCNCc1ccc(/C=C/C(=O)NO)cc1 + CN(C)c1ccc(Nc2c3ccc(NC(=O)CCN4CCCC4)cc3nc3cc(NC(=O)CCN4CCCC4)ccc23)cc1"
result = "19.1 nM"

[[record]]
compound = "CCCS(=O)(=O)Nc1ccc(F)c(C(=O)c2c[nH]c3ncc(-c4ccc(Cl)cc4)cc23)c1F + Cc1cnc(CNC(=O)c2c(=O)c3ccc(N4CCCN(C)CC4)nc3n3c2sc2ccccc23)cn1"
result = "< 31.6 nM"

[[record]]
compound = "CC1COCCN1c1cc(C2(O)CC3CCC(C2)O3)c2cnn(-c3ccn[nH]3)c2n1 (stereo unspecified) + Cc1[nH]c2ccc(F)cc2c1-c1nc2c3cccnc3c3ncccc3c2[nH]1"
result = "< 31.6 nM"

[[record]]
compound = "C#Cc1c(F)ccc2cc(O)cc(-c3ncc4c(N5CC6CCC(C5)N6)nc(OCC56CCCN5CC(F)C6)nc4c3F)c12 (stereo unspecified) + CN(C)c1ccc(Nc2c3ccc(NC(=O)CCN4CCCC4)cc3nc3cc(NC(=O)CCN4CCCC4)ccc23)cc1"
result = "4690 nM"

[[record]]
compound = "Cn1ncnc1[C@H]1c2n[nH]c(=O)c3cc(F)cc(c23)N[C@@H]1c1ccc(F)cc1 + CN(C)c1ccc(Nc2c3ccc(NC(=O)CCN4CCCC4)cc3nc3cc(NC(=O)CCN4CCCC4)ccc23)cc1"
result = "> 316 nM"

[[record]]
compound = "CC1COCCN1c1cc(-c2ccnn2C)c2ccnc(-c3ccn[nH]3)c2n1 (stereo unspecified) + CN(C)c1ccc(Nc2c3ccc(NC(=O)CCN4CCCC4)cc3nc3cc(NC(=O)CCN4CCCC4)ccc23)cc1"
result = "< 31.6 nM"

[[record]]
compound = "Cc1[nH]c2ccccc2c1CCNCc1ccc(/C=C/C(=O)NO)cc1 + Cc1[nH]c2ccc(F)cc2c1-c1nc2c3cccnc3c3ncccc3c2[nH]1"
result = "< 0.999 nM"

[[record]]
compound = "C=CCn1c(=O)c2cnc(Nc3ccc(N4CCN(C)CC4)cc3)nc2n1-c1cccc(C(C)(C)O)n1 + Cc1[nH]c2ccc(F)cc2c1-c1nc2c3cccnc3c3ncccc3c2[nH]1"
result = "< 31.6 nM"

[[record]]
compound = "C=CC(=O)N1CCN(c2nc(=O)n(-c3c(C)ccnc3C(C)C)c3nc(-c4c(O)cccc4F)c(F)cc23)C(C)C1 (stereo unspecified) + CN(C)c1ccc(Nc2c3ccc(NC(=O)CCN4CCCC4)cc3nc3cc(NC(=O)CCN4CCCC4)ccc23)cc1"
result = "7180 nM"


###

// reported viability, T/C for each item listed
# System: 817829-284-R-J1-PDC complex spheroids, viability
# assay_comment: Anticancer human tumor 817829-284-R-J1-PDC cell line growth inhibition [GQUAD];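 note: spheroids exposed to agents for 7 days before readout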;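 for viability, T/C: percent viability relative to DMSO vehicle control taken as 100%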
# test_settings: second compound 0.1 µM; first compound 10 µM; stronger effect = lower value
experimental_endpoint: viability, T/C (%)

[[record]]
compound = "C#Cc1c(F)ccc2cc(O)cc(-c3ncc4c(N5CC6CCC(C5)N6)nc(OCC56CCCN5CC(F)C6)nc4c3F)c12 (stereo not given) + CN(C)c1ccc(Nc2c3ccc(NC(=O)CCN4CCCC4)cc3nc3cc(NC(=O)CCN4CCCC4)ccc23)cc1"
study_system = "817829-284-R-J1-PDC complex spheroids, viability"
experimental_endpoint = "viability, T/C"
result_number = 116

[[record]]
compound = "C=CCn1c(=O)c2cnc(Nc3ccc(N4CCN(C)CC4)cc3)nc2n1-c1cccc(C(C)(C)O)n1 + CN(C)c1ccc(Nc2c3ccc(NC(=O)CCN4CCCC4)cc3nc3cc(NC(=O)CCN4CCCC4)ccc23)cc1"
study_system = "817829-284-R-J1-PDC complex spheroids, viability"
experimental_endpoint = "viability, T/C"
result_number = 5.57

[[record]]
compound = "Cc1cccc(N(C)C(=O)C2C(O)CCN2c2nc(C)cc(C(F)(F)F)c2C#N)c1 (stereo not given) + Cc1[nH]c2ccc(F)cc2c1-c1nc2c3cccnc3c3ncccc3c2[nH]1"
study_system = "817829-284-R-J1-PDC complex spheroids, viability"
experimental_endpoint = "viability, T/C"
result_number = 105

[[record]]
compound = "CCCS(=O)(=O)Nc1ccc(F)c(C(=O)c2c[nH]c3ncc(-c4ccc(Cl)cc4)cc23)c1F + Cc1cnc(CNC(=O)c2c(=O)c3ccc(N4CCCN(C)CC4)nc3n3c2sc2ccccc23)cn1"
study_system = "817829-284-R-J1-PDC complex spheroids, viability"
experimental_endpoint = "viability, T/C"
result_number = 10.2

[[record]]
compound = "CC(C)(O)C1CCC(Nc2ccc3ncc(-c4cccc(C(F)(F)F)c4)n3n2)CC1 (stereo not given) + Cc1cnc(CNC(=O)c2c(=O)c3ccc(N4CCCN(C)CC4)nc3n3c2sc2ccccc23)cn1"
study_system = "817829-284-R-J1-PDC complex spheroids, viability"
experimental_endpoint = "viability, T/C"
result_number = 8.8


###

# System: 817829-284-R-J1-PDC complex spheroids, viability
# assay_comment: Anticancer human tumor 817829-284-R-J1-PDC cell line growth inhibition [GQUAD];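 note: spheroids exposed to agents for 7 days before readout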
# test_settings: curve of first compound; second compound 10 µM
experimental_endpoint: IC50

[[record]]
compound = "COc1ccc([C@@H](O)c2cc(-c3ncnc4cc(N5CCOCC5)ccc34)c(F)cc2Cl)nn1 + CN(C)c1ccc(Nc2c3ccc(NC(=O)CCN4CCCC4)cc3nc3cc(NC(=O)CCN4CCCC4)ccc23)cc1"
study_system = "817829-284-R-J1-PDC complex spheroids, viability"
result = "1.14 µM"

[[record]]
compound = "CC1COCCN1c1cc(-c2ccnn2C)c2ccnc(-c3ccn[nH]3)c2n1 (stereo not drawn) + Cc1[nH]c2ccc(F)cc2c1-c1nc2c3cccnc3c3ncccc3c2[nH]1"
study_system = "817829-284-R-J1-PDC complex spheroids, viability"
result = "< 0.0316 µM"

[[record]]
compound = "CC1COCCN1c1cc(C2(S(C)(=N)=O)CC2)nc(-c2ccnc3[nH]ccc23)n1 (stereo not drawn) + CN(C)c1ccc(Nc2c3ccc(NC(=O)CCN4CCCC4)cc3nc3cc(NC(=O)CCN4CCCC4)ccc23)cc1"
study_system = "817829-284-R-J1-PDC complex spheroids, viability"
result = "0.391 µM"


###

Measured viability, T/C, listed per entry for reference.
# Tested on: 817829-284-R-J1-PDC complex spheroids, viability
# assay_comment: Anticancer human tumor 817829-284-R-J1-PDC cell line growth inhibition [GQUAD];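 note: spheroids exposed to agents for 7 days before readout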;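 for viability, T/C: percent viability relative to DMSO vehicle control taken as 100%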
# test_settings: second compound 0.0316 µM; first compound 0.00999 µM; stronger effect = lower value
experimental_endpoint: viability, T/C (%)

[[record]]
compound = "Cn1ncnc1[C@H]1c2n[nH]c(=O)c3cc(F)cc(c23)N[C@@H]1c1ccc(F)cc1 + Cc1[nH]c2ccc(F)cc2c1-c1nc2c3cccnc3c3ncccc3c2[nH]1"
unit_spec = "%"
result_number = 95.5

[[record]]
compound = "CCc1c2c(nc3ccc(O)cc13)-c1cc3c(c(=O)n1C2)COC(=O)[C@]3(O)CC + CN(C)c1ccc(Nc2c3ccc(NC(=O)CCN4CCCC4)cc3nc3cc(NC(=O)CCN4CCCC4)ccc23)cc1"
unit_spec = "%"
result_number = 32.1

[[record]]
compound = "CCc1c2c(nc3ccc(O)cc13)-c1cc3c(c(=O)n1C2)COC(=O)[C@]3(O)CC + Cc1[nH]c2ccc(F)cc2c1-c1nc2c3cccnc3c3ncccc3c2[nH]1"
unit_spec = "%"
result_number = 30.3

[[record]]
compound = "CC[C@@]1(O)C(=O)OCc2c1cc1n(c2=O)Cc2cc3c(CN(C)C)c(O)ccc3nc2-1 + Cc1cnc(CNC(=O)c2c(=O)c3ccc(N4CCCN(C)CC4)nc3n3c2sc2ccccc23)cn1"
unit_spec = "%"
result_number = 54.5

[[record]]
compound = "CC[C@@]1(O)C(=O)OCc2c1cc1n(c2=O)Cc2cc3c(CN(C)C)c(O)ccc3nc2-1 + CN(C)c1ccc(Nc2c3ccc(NC(=O)CCN4CCCC4)cc3nc3cc(NC(=O)CCN4CCCC4)ccc23)cc1"
unit_spec = "%"
result_number = 94.8

